Hello, the source for this data is patent US20260262643A1, in case you need it.

Exercise: state measured Plant response rating, Pigweed, Palmer for each of the compounds provided.
test system: pigweed, palmer; assay: Test C postemergence; type: in vivo, Amaranthus palmeri; conditions: Postemergence, 500 g ai/ha, 10 days, visual 0 to 100 scale (0 no effect, 100 complete control)
Respond numerically, and do not add a unit to the figure.

Lab book: Plant response rating, Pigweed, Palmer of `COc1ccc(-n2cnc(C(C)C)n2)cc1C(=O)N1C[C@H](C)Oc2c1cccc2C(F)(F)F` noted as 100

Lab book: Plant response rating, Pigweed, Palmer of `COc1cc(-n2cnc(C(C)C)n2)cc(C(=O)N2C[C@H](C)Oc3c(Cl)cccc32)c1OC` noted as 20

Lab book: Plant response rating, Pigweed, Palmer of `C[C@H]1CN(C(=O)c2cc(-n3cnc(C4CCC4)n3)cc3c2OCCO3)c2cccc(Cl)c2O1` noted as 100

Lab book: Plant response rating, Pigweed, Palmer of `COc1cc(C(=O)N2C[C@H](C)Oc3c(Cl)cccc32)cc(-n2cnc(C(C)(C)C)n2)c1` noted as 100

Lab book: Plant response rating, Pigweed, Palmer of `Cc1cccc2c1O[C@@H](C)CN2C(=O)c1cc(-n2cnc(C(C)C)n2)cc2occc12` noted as 100

Lab book: Plant response rating, Pigweed, Palmer of `COc1ccc(-n2cncn2)cc1C(=O)N1C[C@H](C)Oc2c(Cl)cccc21` noted as 90

Lab book: Plant response rating, Pigweed, Palmer of `Cc1cccc2c1O[C@@H](C)CN2C(=O)c1cccc(-n2cnc(N(C)C)n2)c1` noted as 80

Lab book: Plant response rating, Pigweed, Palmer of `CCc1ncn(-c2cc3c(c(C(=O)N4C[C@H](C)Oc5c(Cl)cccc54)c2)OCCO3)n1` noted as 100

====

system: wheat; experiment: Test C postemergence; type: in vivo, Triticum aestivum; details: Postemergence, 500 g ai/ha, 10 days, visual 0 to 100 scale (0 no effect, 100 complete control)
From the text: […]
Exercise: state measured Plant response rating, Wheat for each of the compounds provided.

Lab book: Plant response rating, Wheat of `C[C@H]1CN(C(=O)c2cccc(-c3ncccn3)c2)c2cccc(Cl)c2O1` noted as 10

Lab book: Plant response rating, Wheat of `COc1ccc(-n2cnc(C(C)C)n2)cc1C(=O)N1C[C@H](C)Oc2c(C)cccc21` noted as 90

Lab book: Plant response rating, Wheat of `C[C@H]1CN(C(=O)c2cc(-n3cnc(C4CCC4)n3)cc3c2OCCO3)c2cccc(Cl)c2O1` noted as 30

Lab book: Plant response rating, Wheat of `Cc1cc(-n2cnc(C(C)C)n2)cc(C(=O)N2C[C@H](C)Oc3c(Cl)cccc32)c1F` noted as 30

====

test system: oat, wild; experiment: Test C postemergence; assay type: in vivo, Avena fatua; settings: Postemergence, 125 g ai/ha; 0 to 100 scale (0 no effect, 100 complete control), 10 days
MEASUREMENT KIND: Plant response rating, Oat, Wild
Respond numerically, and do not add a unit to the figure.

Measured Plant response rating, Oat, Wild for this entry `COC[C@H]1CN(C(=O)c2cc(-n3cnc(C(C)C)n3)ccc2C)c2cccc(Cl)c2O1` on oat, wild: 20

Measured Plant response rating, Oat, Wild for this entry `Cc1ccc(-n2cnc(C(C)(C)C#N)n2)cc1C(=O)N1C[C@H](C)Oc2c(Cl)cccc21` on oat, wild: 20

Measured Plant response rating, Oat, Wild for this entry `COC(=O)c1ncn(-c2ccc(C)c(C(=O)N3C[C@H](C)Oc4c(Cl)cccc43)c2)n1` on oat, wild: 50

Measured Plant response rating, Oat, Wild for this entry `C=C(C)c1cc(C(=O)N2C[C@H](C)Oc3c(Cl)cccc32)cc(-n2cncn2)c1` on oat, wild: 0

Measured Plant response rating, Oat, Wild for this entry `COC[C@H]1CN(C(=O)c2cc(-n3cnc(C4CCC4)n3)cc3c2OCCO3)c2cccc(Cl)c2O1` on oat, wild: 0

Measured Plant response rating, Oat, Wild for this entry Cc1cccc2c1OC(C(F)(F)F)CN2C(=O)c1ccnc(-n2cnc(C(C)C)n2)c1 (single isomer, unassigned) on oat, wild: 10

====

Exercise: state measured Plant response rating, Wheat for each of the molecules provided.
tested on: wheat; experiment: Test A postemergence; type: in vivo, Triticum aestivum; conditions: 500 g ai/ha, Postemergence; 0 to 100 scale
Respond numerically, and do not add a unit to the figure.

Measured Plant response rating, Wheat for this entry CC1CN(C(=O)c2cccc(-n3cncn3)c2)c2cccc(C3CC3)c2O1 (stereo not drawn) on wheat: 20

Measured Plant response rating, Wheat for this entry `Cc1cccc2c1O[C@@H](C)CN2C(=O)c1ccc(F)c(-n2cncn2)c1` on wheat: 60

Measured Plant response rating, Wheat for this entry CCC1CN(C(=O)c2cncc(-n3cncn3)c2)c2cccc(Cl)c2O1 (racemic) on wheat: 0

Measured Plant response rating, Wheat for this entry Cc1ccc(C(=O)N2CC(C)Oc3c(Cl)cccc32)cc1-n1cncn1 (stereo not drawn) on wheat: 70

Measured Plant response rating, Wheat for this entry O=C(c1cccc(-n2cncn2)c1)N1CC(C(F)(F)F)Oc2c(Cl)cccc21 (stereo not drawn) on wheat: 40

Measured Plant response rating, Wheat for this entry `C[C@H]1CN(C(=O)c2cccc(-n3cncn3)c2)c2cccc(C#N)c2O1` on wheat: 50

====

tested on: ryegrass, Italian; assay: Test A postemergence; type: in vivo, Lolium multiflorum; conditions: 1000 g ai/ha, Postemergence; 0 to 100 scale
Exercise: state measured Plant response rating, Ryegrass, Italian for each of the compounds provided.
Respond numerically, and do not add a unit to the figure.

Lab book: Plant response rating, Ryegrass, Italian of `Cc1cccc2c1O[C@@H](C)CN2C(=O)c1cccc(-n2cc(C#N)cn2)c1` noted as 20

Lab book: Plant response rating, Ryegrass, Italian of `Cc1csc(-c2cccc(C(=O)N3C[C@H](C)Oc4c(Cl)cccc43)c2)n1` noted as 0

Lab book: Plant response rating, Ryegrass, Italian of C=Cc1cccc2c1OC(C)CN2C(=O)c1cccc(-n2cncn2)c1 (stereo not drawn) noted as 0

Lab book: Plant response rating, Ryegrass, Italian of COc1cccc2c1OC(C)CN2C(=O)c1cccc(-n2cncn2)c1 (stereo not drawn) noted as 60

Lab book: Plant response rating, Ryegrass, Italian of CC1CN(C(=O)c2cccc(-n3cncn3)c2)c2ccccc2O1 (stereo not drawn) noted as 70

Lab book: Plant response rating, Ryegrass, Italian of Cc1cc(C(=O)N2CC(C)Oc3c(Cl)cccc32)cc(-n2cncn2)c1 (stereo not drawn) noted as 90

Lab book: Plant response rating, Ryegrass, Italian of `Cc1nc(-c2cccc(C(=O)N3C[C@H](C)Oc4c(Cl)cccc43)c2)no1` noted as 0

Lab book: Plant response rating, Ryegrass, Italian of CC1CN(C(=O)c2cccc(-n3cncn3)c2)c2cccc(F)c2O1 (stereo not drawn) noted as 70

Lab book: Plant response rating, Ryegrass, Italian of `Cc1nc(-c2cccc(C(=O)N3C[C@H](C)Oc4c(Cl)cccc43)c2)cs1` noted as 0

====

Exercise: state measured Plant response rating, Horseweed for each of the molecules provided.
system: horseweed; assay: Test C postemergence; assay type: in vivo, Erigeron canadensis; conditions: 125 g ai/ha, postemergence, 10 days; 0 to 100 scale, 0 no effect, 100 complete control

Lab book: Plant response rating, Horseweed of `CCc1ccc(-n2cnc(C(C)(C)O)n2)cc1C(=O)N1C[C@H](C)Oc2c(Cl)cccc21` noted as 0

Lab book: Plant response rating, Horseweed of `Cc1cccc2c1O[C@H](C)CN2C(=O)c1cccc(-c2ncn(C(C)C)n2)c1` noted as 0

Lab book: Plant response rating, Horseweed of `Cc1cccc2c1O[C@@H](C)CN2C(=O)c1cccc(-n2cnc(C#C[Si](C)(C)C)n2)c1` noted as 0

Lab book: Plant response rating, Horseweed of `Cc1c(F)cc(-n2cnc(C(C)C)n2)cc1C(=O)N1C[C@H](C)Oc2c(Cl)cccc21` noted as 40

Lab book: Plant response rating, Horseweed of `COc1ccc(-n2cnc(C(C)(C)O)n2)cc1C(=O)N1C[C@H](C)Oc2c(Cl)cccc21` noted as 30

Lab book: Plant response rating, Horseweed of `COc1ccc(-n2cnc(C(C)C)n2)cc1C(=O)N1C[C@H](C)Oc2c1cccc2C(F)(F)F` noted as 20

Lab book: Plant response rating, Horseweed of `COc1ccc(-n2cncn2)cc1C(=O)N1C[C@H](C)Oc2c(F)cccc21` noted as 20

Lab book: Plant response rating, Horseweed of `Cc1ccc(-n2cnc(C3(C(F)(F)F)CCC3)n2)cc1C(=O)N1C[C@H](C)Oc2c(Cl)cccc21` noted as 0

Lab book: Plant response rating, Horseweed of `COc1ccc(-n2cncn2)cc1C(=O)N1C[C@H](C)Oc2ccccc21` noted as 10

Lab book: Plant response rating, Horseweed of `CCc1ncn(-c2cc(OC)cc(C(=O)N3C[C@H](C)Oc4c(Cl)cccc43)c2)n1` noted as 20

Lab book: Plant response rating, Horseweed of `COC[C@H]1CN(C(=O)c2cc(-n3cnc(C4CCC4)n3)ccc2OC)c2cccc(Cl)c2O1` noted as 70

Lab book: Plant response rating, Horseweed of `Cc1ccc(-n2cnc(C3(C(F)(F)F)CC3)n2)cc1C(=O)N1C[C@H](C)Oc2c(Cl)cccc21` noted as 80

Lab book: Plant response rating, Horseweed of `COc1c(F)cc(-n2cnc(C(C)C)n2)cc1C(=O)N1C[C@H](C)Oc2c(Cl)cccc21` noted as 30
